# study_conditions: cynomolgus monkey, in vivo, sc, 40 mg/kg
property: AST (IU/L)
Entry rule: numbers only, all in IU/L.

See these solved cases before continuing.
ISIS 584468: antisense compound targeted to human AR (CATTGTACTATGCCAG; 3-10-3 (S)-cEt gapmer, further chemistry not given here) :: 52
ISIS 584149: antisense compound targeted to human AR (GTCAATATCAAAGCAC; 3-10-3 (S)-cEt gapmer, further chemistry not given here) :: 58

Next up:
The substance listed as ISIS 583918: antisense compound targeted to human AR (AGTCGCGACTCTGGTA; 3-10-3 (S)-cEt gapmer, further chemistry not given here) shows AST equal to 73

---

Measured HCT, listed per entry.
# study_conditions: cynomolgus monkey, in vivo, sc, 40 mg/kg
Entry rule: numbers only, all in %.

See these solved cases before continuing.
ISIS 584269: antisense compound targeted to human AR (CCTTATGGATGCTGCT; 3-10-3 (S)-cEt gapmer, further chemistry not given here) :: 41
ISIS 583918: antisense compound targeted to human AR (AGTCGCGACTCTGGTA; 3-10-3 (S)-cEt gapmer, further chemistry not given here) :: 46
TGATTTAATGGTTGCA [ISIS 569236] (cEt/MOE gapmer chemistry, further chemistry not given here) :: 44
ISIS 584163: antisense compound targeted to human AR (GAACATTATTAGGCTA; 3-10-3 (S)-cEt gapmer, further chemistry not given here) :: 44
TGATTTAATGGTTGCA [ISIS 569213] (cEt/MOE gapmer chemistry, further chemistry not given here) :: 42

The substance listed as TGATTTAATGGTTGCA [ISIS 569216] (cEt/MOE gapmer chemistry, further chemistry not given here) shows HCT equal to 43

---

# Tested on: AR mRNA
# test: Antisense inhibition of human AR in HuVEC cells, single concentration (electroporation, qRT-PCR RTS3559)
# Format: cell-based
# study_conditions: Table 22, 500 nM oligonucleotide, electroporation, approximately 24 hours, relative to untreated control
Oligonucleotides are written 5' to 3', each unit as a sugar letter and its base; * is a phosphorothioate linkage, no mark a phosphodiester; rarer units and linkages stand in square brackets, end groups in braces. Plain capitals give the bases only. k = constrained ethyl (cEt); [5mC] = 5-methylcytosine; d = 2'-deoxy (DNA)
So basically: % inhibition at 30% or higher? That is Fulfilled. Lower than 30%? That is Not fulfilled.

549372 (kA*kA*kG*dT*dT*dG*dT*dA*dG*dT*dA*dG*dT*k[5mC]*kG*k[5mC]) [compound 549372] :: Fulfilled

Query :: Is it the case that 584006 (kA*k[5mC]*kA*d[5mC]*dA*dA*dG*dT*dG*dG*dG*dA*d[5mC]*kT*kG*kG; antisense) [compound 584006] has % inhibition reaching or exceeding 30%?
Result :: Fulfilled

Query :: Is it the case that 583999 (kA*k[5mC]*k[5mC]*dA*dT*dG*d[5mC]*d[5mC]*dG*d[5mC]*d[5mC]*dA*dG*kG*kG*kT; antisense) [compound 583999] has % inhibition reaching or exceeding 30%?
Result :: Not fulfilled

Query :: Is it the case that 549458 (kG*kT*kT*dG*dA*dT*dT*dT*dA*dA*dT*dG*dG*kT*kT*kG) [compound 549458] has % inhibition reaching or exceeding 30%?
Result :: Fulfilled

Query :: Is it the case that 584044 (k[5mC]*k[5mC]*k[5mC]*dT*dT*d[5mC]*dA*dG*d[5mC]*dG*dG*d[5mC]*dT*k[5mC]*kT*kT; antisense) [compound 584044] has % inhibition reaching or exceeding 30%?
Result :: Not fulfilled

---

# Tested on: CWR22-RV1 cells
# test: CWR22-RV1 cell proliferation (CellTiter 96)
# Type: cell-based, human
# study_conditions: RNAiMax, dose 5.0 nM, 6 days
Oligonucleotides are written 5' to 3', each unit as a sugar letter and its base; * is a phosphorothioate linkage, no mark a phosphodiester; rarer units and linkages stand in square brackets, end groups in braces. Plain capitals give the bases only. e = 2'-O-(2-methoxyethyl) (MOE); k = constrained ethyl (cEt); [5mC] = 5-methylcytosine; d = 2'-deoxy (DNA)
property: Percent inhibition of cell proliferation (%)
Entry rule: numbers only, all in %.

See these solved cases before continuing.
AAGTTGTAGTAGTCGC (kA*kA*kG*dT*dT*dG*dT*dA*dG*dT*dA*dG*dT*k[5mC]*kG*k[5mC]) [ISIS 549372, targets exon 1] :: 0
ACCAAGTTTCTTCAGC (LNA gapmer, phosphorothioate backbone, further chemistry not given here) [ISIS 554221, 3-10-3 LNA gapmer, phosphorothioate backbone, targeted to exon 4 of AR; benchmark, reference compound] :: 11
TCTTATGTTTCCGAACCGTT (sugars from the 5' end e5 d10 e5, backbone and methylation of C not given here) [ISIS 347526, reference compound] :: 0
CTAAACTTCCCGTGGC (k[5mC]*kT*kA*dA*dA*d[5mC]*dT*dT*d[5mC]*d[5mC]*d[5mC]*dG*dT*kG*kG*k[5mC]) [ISIS 549434, targets 3'-end of exon 8] :: 15

Next up:
The sequence listed as GTTGATTTAATGGTTG (all phosphorothioate, sugars by position not given here; further chemistry not fully specified) [ISIS 549458] shows Percent inhibition of cell proliferation equal to 0

---

# System: AR mRNA
# test: Dose-dependent antisense inhibition of human AR in HuVEC cells (electroporation, qRT-PCR RTS3559, IC50)
# Assay type: cell-based
# study_conditions: HuVEC, ~16 h; Table 14
Oligonucleotides are written 5' to 3', each unit as a sugar letter and its base; * is a phosphorothioate linkage, no mark a phosphodiester; rarer units and linkages stand in square brackets, end groups in braces. Plain capitals give the bases only. e = 2'-O-(2-methoxyethyl) (MOE); k = constrained ethyl (cEt); [5mC] = 5-methylcytosine; d = 2'-deoxy (DNA)
property: IC50 (nM)
Entry rule: numbers only, all in nM.

The substance listed as 569227 (antisense eT*eG*kA*kT*kT*dT*dA*dA*dT*dG*dG*dT*kT*kG*k[5mC]*eA) [compound 569227] shows IC50 equal to 255

The substance listed as 569238 (antisense eG*kT*kT*kG*dA*dT*dT*dT*dA*dA*dT*kG*kG*kT*eT*eG) [compound 569238] shows IC50 equal to 202

The substance listed as 560132 (antisense kG*kT*kT*dG*dA*dT*dT*dT*dA*dA*dT*dG*kG*kT*kT*eG) [compound 560132] shows IC50 equal to 252

---

# System: LMR20 cells
# test: Proliferation of MDV3100-resistant LMR20 cells (MTT; with R1881 or DHT)
# Type: cell-based, human
# study_conditions: CSS + R1881, ASO 0.04 μM, 5 days
# Protocol: LMR20 cells were plated at 1,500 cells per well in phenol red-free medium with charcoal-stripped fetal bovine serum (CSS), to remove any androgens from the medium (Life Technologies). […] After a treatment period of 5 days, the proliferative ability of the cancer cells was measured by the standard MTT assay. […]
Measured Percent inhibition of LMR20 cell proliferation, listed per entry.
Entry rule: numbers only, all in %.

See these solved cases before continuing.
GTTGATTTAATGGTTG (all phosphorothioate, sugars by position not given here; further chemistry not fully specified) [ISIS 549458] :: 0
TTGATTTAATGGTTGC [ISIS 560131] (MOE and (S)-cEt gapmer chemistry, further chemistry not given here) [targets intron 1] :: 0
ACCAAGTTTCTTCAGC (LNA gapmer, phosphorothioate backbone, further chemistry not given here) [ISIS 554221, 3-10-3 LNA gapmer, phosphorothioate backbone, targeted to exon 4 of AR; benchmark, reference compound] :: 1

The sequence listed as TGATTTAATGGTTGCA [ISIS 569236] (cEt/MOE gapmer chemistry, further chemistry not given here) [targets intron 1] shows Percent inhibition of LMR20 cell proliferation equal to 0

---

# System: AR mRNA
# test: Dose-dependent antisense inhibition of human AR in HuVEC cells (electroporation, qRT-PCR RTS3559, IC50)
# Assay type: cell-based
# study_conditions: 1000.0 nM; HuVEC, ~16 h; Table 6
Oligonucleotides are written 5' to 3', each unit as a sugar letter and its base; * is a phosphorothioate linkage, no mark a phosphodiester; rarer units and linkages stand in square brackets, end groups in braces. Plain capitals give the bases only. e = 2'-O-(2-methoxyethyl) (MOE); k = constrained ethyl (cEt); [5mC] = 5-methylcytosine; d = 2'-deoxy (DNA)
Measured percent inhibition of AR, listed per entry.
Entry rule: numbers only, all in %.

See these solved cases before continuing.
560100 (antisense kT*kG*kG*dT*dT*dG*dA*dT*dT*dT*dA*dA*dT*kG*kG*kT) [compound 560100] :: 93
549459 (kA*kT*kG*dG*dT*dT*dG*dA*dT*dT*dT*dA*dA*kT*kG*kG) [compound 549459] :: 92
560071 (eT*eG*eG*eT*eT*dG*dA*dT*dT*dT*dA*dA*dT*dG*dG*eT*eT*eG*e[5mC]*eA) [compound 560071] :: 76
560099 (kG*kG*kT*dT*dG*dA*dT*dT*dT*dA*dA*dT*dG*kG*kT*kT) [compound 560099] :: 94
560137 (antisense TTGATTTAATGGTTGC; all C 5-methyl, all phosphorothioate, sugars by position not given here; further chemistry not fully specified) [compound 560137] :: 96
549458 (kG*kT*kT*dG*dA*dT*dT*dT*dA*dA*dT*dG*dG*kT*kT*kG) [compound 549458] :: 93

The substance listed as 549457 (kT*kT*kG*dA*dT*dT*dT*dA*dA*dT*dG*dG*dT*kT*kG*k[5mC]) [compound 549457] shows percent inhibition of AR equal to 96

The substance listed as 560098 (kT*kG*kA*dT*dT*dT*dA*dA*dT*dG*dG*dT*dT*kG*k[5mC]*kA; further chemistry not given here) [compound 560098] shows percent inhibition of AR equal to 94
